Test target: T1, Fus1, P11710
T1 sequence (P11710 432-512, looked up): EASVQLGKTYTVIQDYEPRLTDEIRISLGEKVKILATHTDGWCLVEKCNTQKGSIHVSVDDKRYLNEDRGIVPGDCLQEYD
Test name: SPOT array
Reported conditions: median of control spots 1200
Rule for this label: YES means SPOT intensity is less than 1; NO means SPOT intensity is at least 1.

{"Binder": "PPPPPPPPPPLPQSL", "Group": "YES"}
{"Binder": "HAPPLPPTAPPPPSL", "Group": "YES"}
{"Binder": "RSKRLFPVRPMATAH", "Group": "NO"}
{"Binder": "GKKVRPLLVLLLSRA", "Group": "NO"}
{"Binder": "APPPPPRRATPEKKP", "Group": "YES"}
{"Binder": "AAAPKHAPPPVPNET", "Group": "YES"}
{"Binder": "SLSRRRFSLPSMPNV", "Group": "NO"}
{"Binder": "KRNRLKILLPFLEQS", "Group": "NO"}
{"Binder": "APERAVPILPPRNNV", "Group": "YES"}
{"Binder": "VATSTSPKLPPRGKQ", "Group": "YES"}
{"Binder": "SSAAPPPPPRRATPE", "Group": "YES"}
{"Binder": "AVPPPPPPPPLPESL", "Group": "YES"}
{"Binder": "QPPLPSSAPPIPTSH", "Group": "YES"}

These measurements were taken from paper PMC2756588.
